Ref: ChEMBL document CHEMBL4622852

For Prothrombin (Homo sapiens, UniProt P00734), measured log10(IC50) is reported for the entries below.
result type: log10(IC50) (log10 of the value in µM)

| compound | result type | measured number |
| --- | --- | --- |
| CC[C@@H](C)[C@@H](NS(=O)(=O)Cc1ccc(C(F)(F)F)cc1)C(=O)N1C[C@@](C)(O)C[C@H]1C(=O)NCc1ccc2c(N)nccc2c1 | log10(IC50) | -0.28 |
| CC(C)C[C@@H](NC(C)C(F)F)C(=O)N1CCC[C@H]1C(=O)NCc1ccc2c(N)nccc2c1 (some centres not stated) | log10(IC50) | -1.02 |
| Nc1nccc2cc(CNC(=O)[C@@H]3CCCN3C(=O)[C@@H](CC3CCCCC3)NC3CCCCC3)ccc12 | log10(IC50) | -3.00 |
| CC(C)C[C@@H](NC1CCOCC1)C(=O)N1CCC[C@H]1C(=O)NCc1ccc2c(N)nccc2c1 | log10(IC50) | -0.55 |
| CC(C)C[C@@H](NC1CCC(C(F)(F)F)CC1)C(=O)N1CCC[C@H]1C(=O)NCc1ccc2c(N)nccc2c1 (some centres not stated) | log10(IC50) | -0.76 |
| CC[C@@H](C)[C@@H](NC1CCC(F)(F)CC1)C(=O)N1C[C@](O)(CC)C[C@H]1C(=O)NCc1ccc2c(N)nccc2c1 | log10(IC50) | 0.08 |
| CC(C)C[C@@H](NC1CCC1)C(=O)N1CCC[C@H]1C(=O)NCc1ccc2c(N)nccc2c1 | log10(IC50) | -1.36 |
| Nc1nccc2cc(CNC(=O)[C@@H]3CCCN3C(=O)[C@@H](CC3CC3)NC3CCCCC3)ccc12 | log10(IC50) | -2.22 |
| CC(C)C[C@@H](NC1CCCCC1)C(=O)N1C[C@@H](O)C[C@H]1C(=O)NCc1ccc2c(N)nccc2c1 | log10(IC50) | 0.00 |
| CC[C@@H](C)[C@@H](NS(=O)(=O)Cc1ccc(Cl)cc1)C(=O)N1C[C@@](C)(O)C[C@H]1C(=O)NCc1ccc2c(N)nccc2c1 | log10(IC50) | -0.43 |
| CC[C@@H](C)[C@@H](NS(=O)(=O)Cc1ccc(Cl)cc1)C(=O)N1C[C@@](C)(C#N)C[C@H]1C(=O)NCc1ccc2c(N)nccc2c1 | log10(IC50) | -1.37 |
| CC(C)CN[C@H](CC(C)C)C(=O)N1CCC[C@H]1C(=O)NCc1ccc2c(N)nccc2c1 | log10(IC50) | -1.43 |
| CC[C@@H](C)[C@@H](NC1CCCCC1)C(=O)N1C[C@@](C)(O)C[C@H]1C(=O)NCc1ccc2c(N)nccc2c1 | log10(IC50) | -0.66 |
| CC(C)C[C@@H](NC1CCCCC1)C(=O)N1CCC[C@H]1C(=O)NCc1ccc2c(N)nccc2c1 | log10(IC50) | -2.30 |

----------
# target or system: Coagulation factor VII (Homo sapiens, UniProt P08709)
# Sequence (P08709 whole entry): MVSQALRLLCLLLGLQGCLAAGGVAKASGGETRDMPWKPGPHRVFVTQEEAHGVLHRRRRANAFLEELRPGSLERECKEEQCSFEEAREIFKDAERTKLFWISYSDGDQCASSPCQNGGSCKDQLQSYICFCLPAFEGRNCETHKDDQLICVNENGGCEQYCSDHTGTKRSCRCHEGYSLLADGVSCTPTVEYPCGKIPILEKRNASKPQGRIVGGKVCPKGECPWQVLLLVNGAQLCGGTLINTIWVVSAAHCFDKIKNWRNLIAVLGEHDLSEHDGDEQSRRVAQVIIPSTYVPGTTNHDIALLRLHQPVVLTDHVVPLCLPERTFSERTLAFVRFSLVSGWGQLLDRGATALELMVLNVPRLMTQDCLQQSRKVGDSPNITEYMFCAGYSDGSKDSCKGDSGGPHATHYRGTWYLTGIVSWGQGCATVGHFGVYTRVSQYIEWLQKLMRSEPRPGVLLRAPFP

| given smiles | target or system | IC50 |
| --- | --- | --- |
| CC[C@@H](C)[C@@H](NC1CCC(F)(F)CC1)C(=O)N1C[C@](O)(CC)C[C@H]1C(=O)NCc1ccc2c(N)nccc2c1 | Coagulation factor VII (Homo sapiens, UniProt P08709) | 3.8 µM |
| CC[C@@H](C)[C@@H](NC1CCCCC1)C(=O)N1C[C@@](C)(O)C[C@H]1C(=O)NCc1ccc2c(N)nccc2c1 | Coagulation factor VII (Homo sapiens, UniProt P08709) | 0.461 µM |
| CC[C@@H](C)[C@@H](NC1CCCCC1)C(=O)N1C[C@@](C)(C#N)C[C@H]1C(=O)NCc1ccc2c(N)nccc2c1 | Coagulation factor VII (Homo sapiens, UniProt P08709) | 1.13 µM |
| CC[C@@H](C)[C@@H](NS(=O)(=O)Cc1ccc(Cl)cc1)C(=O)N1C[C@@](C)(O)C[C@H]1C(=O)NCc1ccc2c(N)nccc2c1 | Coagulation factor VII (Homo sapiens, UniProt P08709) | 2.02 µM |
